# test.target: PRMT6 (Homo sapiens, UniProt Q96LA8)
# Sequence (Q96LA8 whole entry, species assumed): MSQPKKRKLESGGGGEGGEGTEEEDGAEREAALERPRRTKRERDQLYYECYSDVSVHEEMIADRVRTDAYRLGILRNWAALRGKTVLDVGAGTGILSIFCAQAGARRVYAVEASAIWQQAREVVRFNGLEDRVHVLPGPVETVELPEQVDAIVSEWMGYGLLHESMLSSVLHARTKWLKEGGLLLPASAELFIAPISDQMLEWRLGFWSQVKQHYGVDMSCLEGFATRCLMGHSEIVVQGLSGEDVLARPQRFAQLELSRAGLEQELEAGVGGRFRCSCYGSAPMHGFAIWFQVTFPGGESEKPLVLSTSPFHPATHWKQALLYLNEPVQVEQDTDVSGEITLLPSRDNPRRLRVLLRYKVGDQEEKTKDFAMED
# measurement.description: radioactive assay (Reaction Biology Corp.), inhibition of PRMT6
# Format: biochemical
So basically: inhibition at 10 µM at 20% or higher? That is 1. Lower than 20%? That is 0.

>>> df
                                    compound  category
 0  Nc1ncnc2c1ncn2[C@@H]1O[C@H](CSCCNC(=O)Nc2ccc(Cl)cc2)[C@@H](O)[C@H]1O         0
 1  N=C(NCCCSC[C@H]1O[C@@H](n2cnc3c(NCCCc4ccccc4)ncnc32)[C@H](O)[C@@H]1O)NCC1CCC1         1
 2  Nc1ncnc2c1ncn2[C@@H]1O[C@H](CSCCNC(=O)NCCc2ccccc2)[C@@H](O)[C@H]1O         1
 3  N=C(NCCCSC[C@H]1O[C@@H](n2cnc3c(N)ncnc32)[C@H](O)[C@@H]1O)Nc1cccc(-c2ccc(F)cc2F)c1         1
 4  N=C(NCCCSC[C@H]1O[C@@H](n2cnc3c(NCCCc4ccccc4)ncnc32)[C@H](O)[C@@H]1O)NCCc1ccccc1 [Compound 19l]         1
 5  Nc1ncnc2c1ncn2[C@@H]1O[C@H](CSCCNC(=O)NC2CCCCC2)[C@@H](O)[C@H]1O         0
 6  Nc1ncnc2c1ncn2[C@@H]1O[C@H](CSCCNCc2cccc(-c3cccc4cn[nH]c34)c2)[C@@H](O)[C@H]1O [Compound 10h]         1
 7  N=C(NCCCSC[C@H]1O[C@@H](n2cnc3c(N)ncnc32)[C@H](O)[C@@H]1O)Nc1cccc(-c2ccc(O)cc2)c1         1
 8  Nc1ncnc2c1ncn2[C@@H]1O[C@H](CSCCOc2ccc(-c3ccoc3)cc2)[C@@H](O)[C@H]1O [Compound 14c]         0
 9  Nc1ncnc2c1ncn2[C@@H]1O[C@H](CSCCNC(=O)Nc2ccccc2Br)[C@@H](O)[C@H]1O         0
10  N=C(NCCSC[C@H]1O[C@@H](n2cnc3c(N)ncnc32)[C@H](O)[C@@H]1O)Nc1cccc(-c2cccc(F)c2)c1         1
11  Nc1ncnc2c1ncn2[C@@H]1O[C@H](CSCCNCc2cccc(-c3cccc(F)c3)c2)[C@@H](O)[C@H]1O [Compound 10c]         1
12  Nc1ncnc2c1ncn2[C@@H]1O[C@H](CSCCNCc2cccc(-c3ccoc3)c2)[C@@H](O)[C@H]1O [Compound 10d]         1
13  N=C(NCCCSC[C@H]1O[C@@H](n2cnc3c(N)ncnc32)[C@H](O)[C@@H]1O)Nc1cccc(-c2ccc(F)c(O)c2)c1         1
